Could you please report measured difference in activity during first hour for the items listed next?
- Test system: Danio rerio larvae (5 dpf)
- procedureText: difference in activity during first hour vs DMSO (percentage points); higher = more activity than DMSO
- recordedConditions: 10 µM; exposure time 6 h
Structures can show the parent of a compound that is named as a salt.

Study these solved cases before continuing.
CCCCC[C@H](O)/C=C/[C@H]1[C@H](O)CC(=O)[C@@H]1C/C=C\CCCC(=O)O [Prostaglandin E2] | 2.46
COc1ccccc1OCC(O)CN1CCN(CC(=O)Nc2c(C)cccc2C)CC1 (centres undefined) [Ranolazine (hydrochloride)] | 4.7
CC(C)(CO)c1cc2cc(NC(=O)C3(c4ccc5c(c4)OC(F)(F)O5)CC3)c(F)cc2n1C[C@@H](O)CO | 15.2

Moving on to the next compound.
Problem: Please report the recorded difference in activity during first hour for O=C(O)c1cc(/N=N/c2ccc(O)c(C(=O)O)c2)ccc1O [Olsalazine (sodium salt)] .
Result: 0.738
